Where these numbers come from: the supplement of paper PMC9233669

- System: biotinyl-Met-oxazolone
- assay info: self-aminoacylation, catalytic enhancement (BMO) (fold over background); higher = more active; k-Seq, kA / k0A0; sequences stand for … in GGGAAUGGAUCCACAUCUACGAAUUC…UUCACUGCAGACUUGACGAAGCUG
Fewer inactive variants are shown than the library holds.
self-aminoacylation: recorded values
measured attribute: self-aminoacylation

• CUACUUCAAGCAAUCGGUAUG [Fam1A.1 aminoacylation ribozyme variant] = 1.07
• CGACACUACAAGCAAUCGGUC [Fam1B.1 aminoacylation ribozyme variant] = 0.769
• AUAACCCUGGUCUUCGAGUGA [Fam2.1 aminoacylation ribozyme variant] = 5.08
• AAGCACCUAGGUCAUCGGGUG [Fam2.2 aminoacylation ribozyme variant] = 3.13
• GCACACCUCAAGCAAUCGGUC [Fam1B.1 aminoacylation ribozyme variant] = 1.3
• CUACUUCAAACAAUCGGUUGG [Fam1A.1 aminoacylation ribozyme variant] = 0.619
• AUUCACCUACGUCUUCGGGUG [Fam2.2 aminoacylation ribozyme variant] = 3.36
• CUUCUUCAAACAAUCCGUCUG [Fam1A.1 aminoacylation ribozyme variant] = 0.623
